System: SK-MEL-2 melanoma
Experiment: NCI tumour cell line growth inhibition, 48 h
Assay metric: TGI

Some solved cases for reference:
| Compound | Observed measurement |
| --- | --- |
| C[O+]=c1cccc2ssnc1-2 | > 100 µM |
| C[n+]1[se]c2ccccc2c1Cl | 28.1 µM |

The reported SK-MEL-2 melanoma TGI of CN(C)c1ccc(C2SCC(=O)N2c2nc3cc4sc(N5C(=O)CSC5c5ccc(N(C)C)cc5)nc4cc3s2)cc1 (stereo unspecified) is > 100 µM

SK-MEL-2 melanoma data for N#CC12CC3=C(N=C1NC1=C(CCc4ccccc41)C2)c1ccccc1CC3 (stereo unspecified) ; its TGI: 23.6 µM

Reported TGI (SK-MEL-2 melanoma) for entry "CC(C)(C)OC/C=C(\Br)CO" is > 100 µM

Note to self: TGI of "C#CCCCC(=C)C[C@@H]1OC(=O)[C@H](C)[C@@H]1O" with SK-MEL-2 melanoma was > 100 µM

meta.source: PubChem BioAssay (NCI)
